Values from patent US11415579B2

- STUDY SYSTEM: human cyclin-dependent kinase 2 (Cdk2) (Homo sapiens)
- Construct: poly-histidine; made in house; host or cells: E. coli
- METHOD: Kinetic thiol consumption assay with wild type Cdk2 (C177)
- Type: binding
- CONDITION PARAMETERS: model thiol glutathione
Kind request: treat 1 as inclusive, so k(Cdk2)/k(GSH) rate enhancement at 1 or higher is yes (1), anything lower is no (0).

> print(dat)
                                   compound  label.value
1            C=CC(=O)Nc1ccccc1C(=O)c1ccccc1      yes (1)
2                 C=CC(=O)N1CCC2(CCCCCC2)C1       no (0)
3  C=CC(=O)Nc1ccc(C23CC4CC(CC(O)(C4)C2)C3)cc1      yes (1)
4      C=CC(=O)N(Cc1ccco1)Cc1cc2cc(C)ccc2o1      yes (1)
5  C=CC(=O)N1CCCC(N2C(=O)CC3(CCCC3)C2=O)C1 (stereo not shown)       no (0)
6       C=CC(=O)N1CCc2cc(-c3cccc(F)c3)ccc21      yes (1)
7          C=CC(=O)Nc1ccc(C(=O)c2ccccc2)cc1      yes (1)

---

- STUDY SYSTEM: Cdk2(S276C) (C177A) (Homo sapiens, UniProt P24941, C177A/S276C)
- Construct: poly-histidine; made in house; host or cells: E. coli
- METHOD: Kinetic thiol consumption assay with Cdk2 mutant S276C
- Format: binding
- CONDITION PARAMETERS: Protein: Cdk2; cysteine position S276C; additional mutation C177A; in h^-1
Assign labels as follows, please: 1 for Rate constant with Cdk2 S276C below 0.006; -1 for Rate constant with Cdk2 S276C equal to or exceeding 0.006.

> print(dat)
                                    molecule  label.value
 1              C=CC(=O)Nc1ccc2nc(C)[nH]c2c1           -1
 2          C=CC(=O)N(c1ccc2c(c1)OCCO2)C1CC1           -1
 3           C=CC(=O)N1CCCc2cc(C(=O)OC)ccc21           -1
 4  C=CC(=O)N1CCCC(C(=O)OCC)C1 (centres unmarked)            1
 5                   C#CCN1CCCN(C(=O)C=C)CC1            1
 6          C=CC(=O)Nc1ccc(C(=O)c2ccccc2)cc1           -1
 7  C=CC(=O)N1CCCCCC1c1cccnc1 (centres unmarked)            1
 8      C=CC(=O)Nc1cccc(-c2cc3ccccc3[nH]2)c1           -1
 9  C=CC(=O)NCCc1c(-c2ccccn2)[nH]c2ccc(F)cc12            1
10          C=CC(=O)N1CC(OCc2cccc3ccccc23)C1           -1
11  C=CC(=O)N1CCCCCC1c1cccs1 (centres unmarked)            1
12          C=CC(=O)Nc1cccc(C(=O)c2ccccc2)c1           -1
13       C=CC(=O)Nc1nc2cc3c(cc2s1)OC(F)(F)O3           -1
14    C=CC(=O)N1CCN(c2ccccc2[N+](=O)[O-])CC1           -1
15                C=CC(=O)Nc1nc2c(s1)CCCCCC2           -1
16  C=CC(=O)N1CCCC1c1cnc2ccccc2c1 (centres unmarked)           -1
17                 C=CC(=O)NCCNC(=O)c1ccccc1           -1
18                      C=CS(=O)(=O)c1ccccc1           -1
19  C=CC(=O)NCCNC(=O)C1CCCN1S(=O)(=O)c1ccccc1 (centres unmarked)            1
20  C=CC(=O)N1CCN(S(C)(=O)=O)CC1c1ccccc1 (centres unmarked)           -1
21  C=CC(=O)N1CCn2c(C(=O)NC3CC3)ccc2C1C (centres unmarked)           -1
22    C=CC(=O)NCCc1c(-c2ccccn2)[nH]c2ccccc12            1
23            C=CC(=O)N1CCC(c2nnc3n2CCC3)CC1            1
24       O=C(c1ccccc1)[C@@H]1O[C@H]1c1ccccc1           -1
25  C=CC(=O)N1C(C(=O)c2ccccc2)C1c1ccccc1 (centres unmarked)            1

---

- STUDY SYSTEM: human cyclin-dependent kinase 2 (Cdk2) (Homo sapiens)
- Construct: poly-histidine; made in house; host or cells: E. coli
- METHOD: Kinetic thiol consumption assay with wild type Cdk2 (C177)
- Assay type: binding
- Design: unit not given here
- CONDITION PARAMETERS: 500 μM ligand, 5 μM thiol, phosphate buffer pH 8
- From the text: A library of 120 acrylamides was screened against a) human cyclin-dependent kinase 2 (Cdk2, which contains one surface exposed cysteine residue—C177), prepared by cloning cDNA into the pRSETA bacterial expression vector to generate a poly-histidine tagged Cdk2 fusion that was purified from E. coli using standard techniques, and b) a model thiol (specific details are given below). […] Fluorescence measurements were normalized against a DMSO/thiol only control and plotted against time. […]
Catalogue of Rate constant with Cdk2 (k(Cdk2)) values
MEASUREMENT TYPE: Rate constant with Cdk2 (k(Cdk2))

> print(dat)
                                    compound  observed.value
 1  C=CC(=O)N1CCCCCC1c1ccc(N(C)C)cc1 (centres unmarked)         0.00303
 2  C=CC(=O)Nc1[nH]nc(C2CC2)c1-c1ccc2c(c1)OCO2           1.146
 3  C=CC(=O)NC1CC2CC1C1CCCC21 (centres unmarked)         0.00232
 4  C=CC(=O)NC(Cc1ccccc1)C(O)CF (centres unmarked)         0.00239
 5              C=CC(=O)N(CC(=O)NC1CC1)C1CC1         0.00688
 6  C=CC(=O)N(C)C1C2CCOC2C1(C)C (centres unmarked)         0.00381
 7          C=CC(=O)N1CCN(c2cccc3cccnc23)CC1         0.01873
 8  C=CC(=O)N1CC(CCN2CCCC2=O)c2ccccc21 (centres unmarked)          0.2034
 9                        C=CC(=O)NCc1ccccc1         0.00446
10  C=CC(=O)N1C(C(=O)c2ccccc2)C1c1ccccc1 (centres unmarked)         0.00097
11  C=CC(=O)N1CC2CCN(Cc3ccccc3)C2C1 (centres unmarked)         0.00347
12       C=CC(=O)N1CCc2cc(-c3cccc(F)c3)ccc21         0.04257
13               C=CC(=O)N(Cc1ccco1)Cc1ccco1          0.2899
14    C=CC(=O)N1CCN(c2ccccc2[N+](=O)[O-])CC1          0.0071

---

- STUDY SYSTEM: Cdk2(T182C) (C177A) (Homo sapiens, UniProt P24941, C177A/T182C)
- Construct: poly-histidine; made in house; host or cells: E. coli
- METHOD: Kinetic thiol consumption assay with Cdk2 mutant T182C
- Type: binding
- Design: key: rate constant with Cdk2 ÷ rate constant with model thiol (fold)
- CONDITION PARAMETERS: Cdk2 T182C, additional mutation C177A
MEASUREMENT TYPE: Rate enhancement, Cdk2 T182C

> print(dat)
                                   compound              measurement.type  observed.value
1  C=CC(=O)N1CCN(S(C)(=O)=O)CC1c1ccccc1 (stereo not drawn)  Rate enhancement, Cdk2 T182C               2
2                     C=CC(=O)NC1(C2CC2)CC1  Rate enhancement, Cdk2 T182C           1.063
3  C=CC(=O)NC1C2CC3CC(C2)CC1C3 (stereo not drawn)  Rate enhancement, Cdk2 T182C          0.2621
4                      C=CS(=O)(=O)c1ccccc1  Rate enhancement, Cdk2 T182C           1.394
5                    C=CC(=O)N1CCCc2sccc2C1  Rate enhancement, Cdk2 T182C           10.15
6          C=CC(=O)NC1(c2noc(C3CC3)n2)CCCC1  Rate enhancement, Cdk2 T182C          0.2903
